targetOrTestSystem: Recombinant human HSD17B13 enzyme (Homo sapiens (Human), UniProt Q7Z5P4)
Sequence (Q7Z5P4 20-300): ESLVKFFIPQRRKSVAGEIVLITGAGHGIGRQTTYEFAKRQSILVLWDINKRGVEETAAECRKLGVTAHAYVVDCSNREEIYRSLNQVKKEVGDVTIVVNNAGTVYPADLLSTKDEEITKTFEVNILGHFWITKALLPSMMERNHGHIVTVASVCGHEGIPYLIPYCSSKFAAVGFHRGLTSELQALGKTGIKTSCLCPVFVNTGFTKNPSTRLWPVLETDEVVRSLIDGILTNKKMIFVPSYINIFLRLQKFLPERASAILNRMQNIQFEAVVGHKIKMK
measurementProtocol: HSD17b13 NAD(P)H-Glo Biochemical Assay
measurementParameters: 50 uM estradiol, 1 mM NAD+; read-out: HSD17β13 IC50
pIC50: −log10 of the molar value.
quantityName: pIC50

What measured pIC50 goes with Cc1cc(O)c(F)c(-n2ncc3cc(N4CCN(S(C)(=O)=O)CC4)ccc32)c1 [Compound 28.05] ?
4.52 to 6.00

What measured pIC50 goes with CN(C)C(=O)c1nn(-c2ccc(F)c(O)c2)c2ccc(-c3ccc(O)c(Cl)c3)cc12 [Compound 14] ?
6.00 to 7.00

What measured pIC50 goes with N#Cc1cccc(-c2ccc3c(cnn3-c3ccc(F)c(O)c3)c2)c1 [Compound 6.01] ?
6.00 to 7.00

What measured pIC50 goes with C[C@@H]1COCCN1c1cc2cnn(-c3cc(O)c(F)c(C(F)(F)F)c3)c2cn1 [Compound 21.55] ?
6.00 to 7.00

What measured pIC50 goes with CS(=O)(=O)Nc1ccc(-c2ccc3c(cnn3-c3ccc(F)c(O)c3)c2)c(Cl)c1 [Compound 10] ?
6.00 to 7.00

What measured pIC50 goes with Oc1cc(-n2ncc3cc(-c4ccc(O)c(Cl)c4)ccc32)ccc1F [Compound 4] ?
6.00 to 7.00

What measured pIC50 goes with Cc1nn(-c2cc(C(F)(F)F)c(F)c(O)c2F)c2cnc(N(C)C3CCOCC3)cc12 [Compound 19.47] ?
> 7.00

What measured pIC50 goes with COC1CCN(c2cc3cnn(-c4cc(O)c(F)c(F)c4)c3cc2Cl)CC1 [Compound 21.21] ?
6.00 to 7.00

What measured pIC50 goes with Oc1cc(-n2ccc3cc(-c4ccc(O)c(Cl)c4)ccc32)ccc1F [Compound 1.06] ?
6.00 to 7.00

What measured pIC50 goes with CS(=O)(=O)N1CCN(c2cc3cnn(-c4cc(O)c(F)c(Cl)c4)c3cn2)CC1 [Compound 19.21] ?
6.00 to 7.00

What measured pIC50 goes with CS(=O)(=O)c1ccc(-c2ccc3c(cnn3-c3ccc(F)c(O)c3)c2)cc1 [Compound 5.05] ?
6.00 to 7.00

What measured pIC50 goes with COc1nn(-c2cc(C(F)(F)F)c(F)c(O)c2F)c2ccc(N(C)C3CCOCC3)cc12 [Compound 19.72] ?
6.00 to 7.00

What measured pIC50 goes with Cc1nn(-c2cc(C(F)(F)F)c(Cl)c(O)c2F)c2cnc(N3CCOCC34CC4)cc12 [Compound 19.116] ?
> 7.00

What measured pIC50 goes with Cc1nn(-c2cc(C(F)(F)F)c(F)c(O)c2F)c2cnc(N3CCN(S(=O)(=O)c4cnn(C)c4)CC3)cc12 [Compound 19.57] ?
> 7.00

What measured pIC50 goes with CS(=O)(=O)N1CCN(c2cc3cn(-c4cc(F)c(F)c(O)c4F)nc3cn2)CC1 [Compound 19.30] ?
6.00 to 7.00

What measured pIC50 goes with CN(C)C(=O)c1ccc(-c2ccc3c(cnn3-c3ccc(F)c(O)c3)c2)c(Cl)c1 [Compound 5.10] ?
6.00 to 7.00

###

Exercise: for every item that follows, state its recorded IC50.
targetOrTestSystem: Recombinant human HSD17B13 enzyme (Homo sapiens (Human))
measurementProtocol: HSD17b13 NAD(P)H-Glo Biochemical Assay
measurementParameters: 50 uM estradiol, 1 mM NAD+; read-out: HSD17β13 IC50

What measured IC50 goes with O=C(O)CCOc1ccc(-c2ccc3c(cnn3-c3ccc(F)c(O)c3)c2)cc1 [Compound 15] ?
1000 to 30000 nM

What measured IC50 goes with Oc1c(F)c(-n2nnc3cc(N4CCOCC45CC5)ncc32)cc(C(F)(F)F)c1F [Compound 21.59] ?
100 to 1000 nM

What measured IC50 goes with CS(=O)(=O)N1CCN(c2cc3cnn(-c4cccc(O)c4F)c3cn2)CC1 [Compound 19.11] ?
1000 to 30000 nM

What measured IC50 goes with CS(=O)(=O)N1CCN(c2cc3cnn(-c4ccc(Cl)c(O)c4F)c3cc2F)CC1 [Compound 19.03] ?
100 to 1000 nM

What measured IC50 goes with CS(=O)(=O)N1CCN(c2ccc3nn(-c4cc(O)cc(C(F)(F)F)n4)cc3c2)CC1 [Compound 31.03] ?
1000 to 30000 nM

What measured IC50 goes with Oc1cc(-n2ncc3cc(N4CCCCC4)ncc32)cc(C(F)(F)F)c1F [Compound 21.42] ?
100 to 1000 nM

What measured IC50 goes with CC1(C)CN(S(C)(=O)=O)CCN1c1cc2cnn(-c3cc(O)c(F)c(C(F)(F)F)c3)c2cn1 [Compound 19.04] ?
100 to 1000 nM

What measured IC50 goes with Oc1ccc(-c2ccc3c(cnn3-c3ccc(F)c(O)c3)c2)cc1 [Compound 4.01] ?
100 to 1000 nM

What measured IC50 goes with CS(=O)(=O)N1CCN(c2cc3cnn(-c4cc(C(F)(F)F)c(F)c(O)c4F)c3cn2)CC1 [Compound 19.38] ?
100 to 1000 nM

What measured IC50 goes with CS(=O)(=O)N1CCN(c2ccc3c(cnn3-c3cc(O)c(F)c(F)c3)c2)CC1 [Compound 21] ?
100 to 1000 nM

What measured IC50 goes with CNS(=O)(=O)c1ccc(-c2ccc3c(cnn3-c3ccc(F)c(O)c3)c2)cc1 [Compound 5.13] ?
100 to 1000 nM

What measured IC50 goes with Cc1nn(-c2cc(O)c(F)c(C(N)=O)c2)c2cnc(N3CCOCC34CC4)cc12 [Compound 19.96] ?
1000 to 30000 nM

What measured IC50 goes with O=C(O)C1CCN(c2ccc3c(cnn3-c3ccc(F)c(O)c3)c2)CC1 [Compound 20.02] ?
1000 to 30000 nM

What measured IC50 goes with Cc1nn(-c2cc(C(F)(F)F)c(Cl)c(O)c2F)c2cc(F)c(N3CCN(S(C)(=O)=O)CC34CC4)cc12 [Compound 19.110] ?
< 100 nM

What measured IC50 goes with Oc1cc(-n2ncc3cc(-c4ccccc4Cl)ccc32)ccc1F [Compound 4.11] ?
100 to 1000 nM

What measured IC50 goes with CS(=O)(=O)N1CCN(c2ccc3c(cnn3-c3cc(C(F)(F)F)cc(O)n3)c2)CC1 [Compound 31] ?
100 to 1000 nM

What measured IC50 goes with Cc1nn(-c2cc(C(F)(F)F)c(F)c(O)c2F)c2cnc(N3CCOC4(CC4)C3)nc12 [Compound 19.81] ?
< 100 nM

What measured IC50 goes with O=S(=O)(Nc1ccc(-c2ccc3c(cnn3-c3ccc(F)c(O)c3)c2)cc1)c1ccccc1 [Compound 11.01] ?
100 to 1000 nM

What measured IC50 goes with Oc1cnc(-c2ccc3c(cnn3-c3cc(O)c(F)c(F)c3)c2)nc1 [Compound 16.02] ?
1000 to 30000 nM

What measured IC50 goes with Cc1nn(-c2ccc(Cl)c(O)c2F)c2cc(F)c(N3CCN(S(C)(=O)=O)CC34CC4)cc12 [Compound 19.104] ?
< 100 nM

What measured IC50 goes with CC1(C)CCN(c2cc3cnn(-c4cc(O)c(F)c(C(F)(F)F)c4)c3cn2)CC1 [Compound 21.43] ?
100 to 1000 nM

What measured IC50 goes with COc1ccc(Nc2ccc3c(cnn3-c3ccc(F)c(O)c3)c2)cc1Cl [Compound 22] ?
100 to 1000 nM

What measured IC50 goes with O=C(O)c1ccc(-c2ccc3c(cnn3-c3ccc(F)c(O)c3)c2)c(Cl)c1 [Compound 12] ?
1000 to 30000 nM

What measured IC50 goes with CS(=O)(=O)N1CCC(c2cc3cnn(-c4cc(O)c(F)c(F)c4)c3cc2Cl)CC1 [Compound 27.01] ?
1000 to 30000 nM

What measured IC50 goes with CC1(C)CN(S(C)(=O)=O)CCN1c1cc2cn(-c3cc(O)c(F)c(C(F)(F)F)c3)nc2cn1 [Compound 19.05] ?
100 to 1000 nM
